# Tested on: Mus musculus
# Protocol details: Plasma concentration in blood of mice after 8.0 hr upon ip administration at a dose of 50 mg/kg
# Type: functional, organism-based
# Parameters: dose 50 mg/kg
Readout: Plasma concentration (µg/mL)
Report as a plain number; the unit µg/mL is understood.

Sample smiles: COc1cc(Nc2c(C#N)cnc3cc(OCC4CCN(C)CC4)c(OC)cc23)c(Cl)cc1Cl
Plasma concentration [µg/mL]: 1.6

Just so you know, measured Plasma concentration for COCCOc1cc2ncc(C#N)c(Nc3cc(OC)c(Cl)cc3Cl)c2cc1OC came out at 0.14

# compound COCCOc1cc2ncc(C#N)c(Nc3cc(OC)c(Cl)cc3Cl)c2cc1OCCOC ; its Plasma concentration = 0.2

Input COc1cc(Nc2c(C#N)cnc3cc(OCCCC4CCN(C)CC4)c(OC)cc23)c(Cl)cc1Cl . Output Plasma concentration: 0.5
